# systemTested: human TGFßRII (antigen of the Octet experiments) (human, UniProt P37173 23-166)
# Sequence (P37173 23-166): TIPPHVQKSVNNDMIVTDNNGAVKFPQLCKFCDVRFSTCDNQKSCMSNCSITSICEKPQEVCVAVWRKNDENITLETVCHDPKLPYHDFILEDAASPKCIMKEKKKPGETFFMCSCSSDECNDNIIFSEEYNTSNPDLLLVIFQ
# testDetails: BLI (Octet)
valueKind: Kd

As a guide, the following entries are already answered.
binder	recordedMeasurement
H1.2 L1 XENP34458 (antibody, V domains shown) VH: QVQVQESGPGLVKPSETLSLTCTVSGGSISNSYFSWGWIRQPPGKGLEWIGSFYYGEKTYYNPSLKSRATISIDTSKSQFSLKLSSVTAADTAVYYCPRGPTMIRGVIDSWGQGTLVTVSS VL: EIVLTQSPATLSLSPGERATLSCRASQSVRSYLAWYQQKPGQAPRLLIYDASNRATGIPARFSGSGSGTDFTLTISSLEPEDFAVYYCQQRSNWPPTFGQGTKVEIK	0.001 nM
H1.26 L1 XENP34482 (antibody, V domains shown) VH: QLQVQESGPGLVKPSETLSLTCTVSGGSISNSYSSWGWIRQPPGKGLEWIGSFYYGEKTYYNPSLKSRATISIDTSKSQFSLKLSSVTAADTAVYYCPRGPTMIRGVIDSWGQGTLVTVSS VL: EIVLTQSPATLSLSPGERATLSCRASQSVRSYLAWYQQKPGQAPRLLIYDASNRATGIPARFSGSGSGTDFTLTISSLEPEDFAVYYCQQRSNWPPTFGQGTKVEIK	0.273 nM
H1.16 L1 XENP34472 (antibody, V domains shown) VH: QLQVQESGPGLVKPSETLSLTCTVSGGSISQSYFSWGWIRQPPGKGLEWIGSFYYGEKTYYNPSLKSRATISIDTSKSQFSLKLSSVTAADTAVYYCPRGPTMIRGVIDSWGQGTLVTVSS VL: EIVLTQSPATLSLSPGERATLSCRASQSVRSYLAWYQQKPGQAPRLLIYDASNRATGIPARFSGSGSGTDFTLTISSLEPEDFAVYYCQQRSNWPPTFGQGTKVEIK	0.407 nM

Request: State the recorded Kd for this entry: H1.17 L1 XENP34473 (antibody, V domains shown) VH: QLQVQESGPGLVKPSETLSLTCTVSGGSISRSYFSWGWIRQPPGKGLEWIGSFYYGEKTYYNPSLKSRATISIDTSKSQFSLKLSSVTAADTAVYYCPRGPTMIRGVIDSWGQGTLVTVSS VL: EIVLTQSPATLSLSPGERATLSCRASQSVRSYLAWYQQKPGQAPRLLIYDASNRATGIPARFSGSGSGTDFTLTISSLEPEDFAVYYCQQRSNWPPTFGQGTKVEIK
Response: 0.292 nM

Request: State the recorded Kd for this entry: H1 L1 WT XENP28298 (antibody, V domains shown) VH: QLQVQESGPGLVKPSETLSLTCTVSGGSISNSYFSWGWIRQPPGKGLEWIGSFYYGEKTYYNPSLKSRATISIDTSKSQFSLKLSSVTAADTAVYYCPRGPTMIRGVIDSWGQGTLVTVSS VL: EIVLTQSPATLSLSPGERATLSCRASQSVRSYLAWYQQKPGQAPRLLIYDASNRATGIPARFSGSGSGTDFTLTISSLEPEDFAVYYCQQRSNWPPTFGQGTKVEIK
Response: 0.001 nM
